target: myeloperoxidase (MPO) (Homo sapiens (Human), UniProt P05164); test: MPO peroxidation assay (Amplex Red assay); assay type: biochemical; conditions: MPO peroxidation, potency range class; read-out: Amplex Red Assay IC50 value
Sequence (P05164 49-745): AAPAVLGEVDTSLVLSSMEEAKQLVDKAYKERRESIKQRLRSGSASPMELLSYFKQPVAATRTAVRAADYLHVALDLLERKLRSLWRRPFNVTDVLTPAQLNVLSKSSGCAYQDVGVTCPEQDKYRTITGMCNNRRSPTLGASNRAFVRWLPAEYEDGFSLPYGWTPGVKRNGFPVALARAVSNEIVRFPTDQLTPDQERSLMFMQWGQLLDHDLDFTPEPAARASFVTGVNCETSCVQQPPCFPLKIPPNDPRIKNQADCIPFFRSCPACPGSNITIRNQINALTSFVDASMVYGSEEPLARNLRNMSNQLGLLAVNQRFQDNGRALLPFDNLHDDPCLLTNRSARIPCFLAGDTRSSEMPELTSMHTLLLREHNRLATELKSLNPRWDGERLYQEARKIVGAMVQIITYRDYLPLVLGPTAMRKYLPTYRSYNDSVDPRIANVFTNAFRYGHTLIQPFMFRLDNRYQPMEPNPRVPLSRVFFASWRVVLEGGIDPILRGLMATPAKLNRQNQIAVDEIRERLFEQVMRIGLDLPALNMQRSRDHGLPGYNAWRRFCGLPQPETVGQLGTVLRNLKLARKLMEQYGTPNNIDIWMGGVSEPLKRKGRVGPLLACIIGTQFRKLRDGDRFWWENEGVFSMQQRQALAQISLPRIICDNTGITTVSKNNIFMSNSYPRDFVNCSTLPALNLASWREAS
Examples of molecules with documented IC50 follow.

- substance-smiles: "Nc1cc(Cc2ccc3c(c2)OCO3)c2nn[nH]c2n1"
  IC50: "101 to 999 nM"
- substance-smiles: "Nc1cc(Cc2cccc(C(=O)NCc3ccccc3)c2)c2nn[nH]c2n1"
  IC50: "101 to 999 nM"
- substance-smiles: "Cc1ccc(Cc2cc(N)nc3[nH]nnc23)cc1"
  IC50: "101 to 999 nM"
- substance-smiles: "Cc1cc(C)n(-c2cccc(Cc3cc(N)nc4[nH]nnc34)c2)n1"
  IC50: "101 to 999 nM"
- substance-smiles: "Nc1cc(Cc2ccc(C(=O)c3ccccc3)cc2)c2nn[nH]c2n1"
  IC50: "101 to 999 nM"
- substance-smiles: "Nc1cc(Cc2ccccc2CS(=O)(=O)c2ccccc2)c2nn[nH]c2n1"
  IC50: "101 to 999 nM"
- substance-smiles: "COC(=O)c1ccc(Cc2cc(N)nc3[nH]nnc23)c(OC)c1"
  IC50: "101 to 999 nM"
- substance-smiles: "CC(C)(C)OC(=O)N1CCCc2cc(Cc3cc(N)nc4[nH]nnc34)ccc21"
  IC50: "101 to 999 nM"
- substance-smiles: "Nc1cc(Cc2ccc(-c3csnn3)cc2)c2nn[nH]c2n1"
  IC50: "101 to 999 nM"
- substance-smiles: "Nc1cc(Cc2ccc(OC(F)(F)F)cc2)c2nn[nH]c2n1"
  IC50: "1000 to 10000 nM"
- substance-smiles: "Nc1cc(Cc2c(F)cccc2F)c2nn[nH]c2n1"
  IC50: "1 to 100 nM"
- substance-smiles: "Nc1cc(Cc2ccc(Oc3ccccc3)nc2)c2nn[nH]c2n1"
  IC50: "1000 to 10000 nM"
- substance-smiles: "Nc1cc(Cc2ccc(-c3ccccc3)cc2)c2nn[nH]c2n1"
  IC50: "101 to 999 nM"
